B1: glmS ribozyme (parent)
chain: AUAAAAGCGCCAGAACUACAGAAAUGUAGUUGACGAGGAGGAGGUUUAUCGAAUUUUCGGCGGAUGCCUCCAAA

- Variants of: B1
- PROTOCOL_TEXT: self-cleavage kobs at 640 uM GlcN6P; higher = faster cleavage; RNA array
- EXPERIMENTAL_SETUP: with glucosamine-6-phosphate
This sample holds only a part of the variants without activity.
READOUT_KIND: self-cleavage kobs at 640 uM GlcN6P

G7A G40U U45G C58G	< 1e-05 s⁻¹
C16U G35C G37A	< 1e-05 s⁻¹
C8G G38U G41A U46G G59A	< 1e-05 s⁻¹
G32C G63A U65A	< 1e-05 s⁻¹
C11A A53G	4.47e-05 s⁻¹

## Task Give self-cleavage kobs at 640 uM GlcN6P for C16U G44C
## Result 6.27e-05 s⁻¹

## Task Give self-cleavage kobs at 640 uM GlcN6P for A36C G51A C71G
## Result 6.03e-05 s⁻¹

## Task Give self-cleavage kobs at 640 uM GlcN6P for G7C A15U U45A
## Result < 1e-05 s⁻¹

## Task Give self-cleavage kobs at 640 uM GlcN6P for G7U C8A C10U U46C A52U
## Result < 1e-05 s⁻¹

## Task Give self-cleavage kobs at 640 uM GlcN6P for A53C U55G
## Result 0.00138 s⁻¹

## Task Give self-cleavage kobs at 640 uM GlcN6P for A15C C34A
## Result < 1e-05 s⁻¹

## Task Give self-cleavage kobs at 640 uM GlcN6P for G7A G41A
## Result < 1e-05 s⁻¹

FYI, the data here is from the supplement of paper PMC7125110.
